Numbers sourced from patent US10150762B2.

test-target: full-length human RORγt (Homo sapiens (Human), UniProt P51449)
Sequence (P51449 other isoform, or with tags, fused parts or gaps): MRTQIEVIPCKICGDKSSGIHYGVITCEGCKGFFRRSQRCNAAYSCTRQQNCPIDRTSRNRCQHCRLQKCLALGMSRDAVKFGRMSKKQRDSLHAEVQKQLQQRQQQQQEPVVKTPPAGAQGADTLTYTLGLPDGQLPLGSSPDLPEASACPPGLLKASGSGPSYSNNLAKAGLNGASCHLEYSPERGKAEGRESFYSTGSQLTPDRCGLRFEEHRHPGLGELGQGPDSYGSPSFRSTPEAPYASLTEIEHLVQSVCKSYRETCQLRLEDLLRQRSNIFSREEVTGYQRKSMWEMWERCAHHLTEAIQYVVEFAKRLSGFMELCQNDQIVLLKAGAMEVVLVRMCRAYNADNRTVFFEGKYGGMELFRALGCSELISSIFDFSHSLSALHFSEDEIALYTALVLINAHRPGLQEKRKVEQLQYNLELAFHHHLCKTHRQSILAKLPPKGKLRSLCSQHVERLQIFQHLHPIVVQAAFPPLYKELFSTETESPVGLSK
test-parameters: read-out: RORγt (FL) Reporter Assay B or C, IC50; HEK293T cells, Conditions B or C
property-measured: IC50 (nM)
I only need the number, in nM, no unit after it.

Notebook: C[C@H]1CCCN1C(=O)c1nc(C(=O)NCC(C)(C)O)sc1-c1ccc(C(O)(C(F)(F)F)C(F)(F)F)cc1Cl , IC50 read as 7.9

Notebook: Cc1cc(C(O)(C(F)(F)F)C(F)(F)F)ccc1-c1sc(C(=O)NCC(C)(C)O)nc1C(=O)N1CCCC[C@@H]1C , IC50 read as 3.9

----------
Can you tell me RORγt (FL) Reporter Assay A, % inhibition for the items I'm about to list?
test-target: full-length human RORγt (Homo sapiens (Human))
Format: cell-based
test-parameters: ** 2 μM compound concentration
Marks after values point to notes of the source that are not given here.

Kindly note: full-length human RORγt (Homo sapiens (Human)), C[C@H]1C[C@@H](F)CCN1C(=O)c1nc(C(=O)NCC(C)(C)O)sc1-c1ccc(C(O)(C(F)(F)F)C(F)(F)F)c(Cl)c1Cl , RORγt (FL) Reporter Assay A, % inhibition value reported: 103** %

Kindly note: full-length human RORγt (Homo sapiens (Human)), CC(C)(O)CNC(=O)c1nc(C(=O)N2CCC(F)CC2)c(-c2ccc(C(O)(C(F)(F)F)C(F)(F)F)c(Cl)c2Cl)s1 , RORγt (FL) Reporter Assay A, % inhibition value reported: 105** %

Kindly note: full-length human RORγt (Homo sapiens (Human)), C[C@@H]1CCCN1C(=O)c1nc(C(=O)NCC(C)(C)O)sc1-c1ccc(C(O)(C(F)(F)F)C(F)(F)F)c(Cl)c1Cl , RORγt (FL) Reporter Assay A, % inhibition value reported: 86** %

Kindly note: full-length human RORγt (Homo sapiens (Human)), C[C@H]1CCCN1C(=O)c1nc(C(=O)NCC(C)(C)O)sc1-c1ccc(C(O)(C(F)(F)F)C(F)(F)F)c(Cl)c1Cl , RORγt (FL) Reporter Assay A, % inhibition value reported: 103** %

Kindly note: full-length human RORγt (Homo sapiens (Human)), CCN(CC)C(=O)c1nc(C(=O)N2C[C@H](O)C[C@H](O)C2)sc1-c1ccc(C(O)(C(F)(F)F)C(F)(F)F)c(Cl)c1Cl , RORγt (FL) Reporter Assay A, % inhibition value reported: 100** %

----------
System: IL-17 production by CD4 T cells
assay-method-text: Human Th17 Assay
Format: cell-based
test-parameters: 72 h, IL-17 in supernatant, 3 days culture, read-out: Human Th17 Assay, IC50
property-measured: pIC50
Scale: negative log10 of molar concentration, which is what pIC50 denotes.

Kindly note: IL-17 production by CD4 T cells, Cc1cc(C(O)(C(F)(F)F)C(F)(F)F)ccc1-c1sc(C(=O)NCC(C)(C)O)nc1C(=O)N1CCC[C@@H]1C , pIC50 value reported: 7.26

----------
test-target: wild type human RORγt ligand binding domain (RORγt LBD) (Homo sapiens (Human), UniProt P51449)
Sequence (P51449 other isoform, or with tags, fused parts or gaps): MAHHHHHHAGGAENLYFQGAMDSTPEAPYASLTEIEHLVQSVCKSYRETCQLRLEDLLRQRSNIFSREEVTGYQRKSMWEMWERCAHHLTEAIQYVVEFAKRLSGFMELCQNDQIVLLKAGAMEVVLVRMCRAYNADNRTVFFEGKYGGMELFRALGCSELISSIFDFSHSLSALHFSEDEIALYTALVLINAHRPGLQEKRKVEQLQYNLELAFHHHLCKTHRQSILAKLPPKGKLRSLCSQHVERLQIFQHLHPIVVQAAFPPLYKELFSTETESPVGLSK
Can you tell me pKd for the items I'm about to list?
Scale: negative log10 of molar concentration, which is what pKd denotes.

Notebook: CCN(CC)C(=O)c1nc(C(=O)N2C[C@H](O)C[C@H](O)C2)sc1-c1ccc(C(O)(C(F)(F)F)C(F)(F)F)c(Cl)c1Cl , pKd read as 8.00

Notebook: CCN(C(=O)c1nc(C(=O)NCC(C)(C)O)sc1-c1ccc(C(O)(C(F)(F)F)C(F)(F)F)c(Cl)c1Cl)C1CCC1 , pKd read as 9.74

Notebook: C[C@H]1CCCN1C(=O)c1nc(C(=O)NCC(C)(C)O)sc1-c1ccc(C(O)(C(F)(F)F)C(F)(F)F)cc1Cl , pKd read as 9.59

Notebook: CC(C)(O)CNC(=O)c1nc(C(=O)N2CCC(F)CC2)c(-c2ccc(C(O)(C(F)(F)F)C(F)(F)F)c(Cl)c2Cl)s1 , pKd read as 7.89

Notebook: C[C@H]1CC(F)(F)CN1C(=O)c1nc(C(=O)NCC(C)(C)O)sc1-c1ccc(C(O)(C(F)(F)F)C(F)(F)F)c(Cl)c1Cl , pKd read as 9.66

Notebook: Cc1cc(C(O)(C(F)(F)F)C(F)(F)F)ccc1-c1sc(C(=O)NCC(C)(C)O)nc1C(=O)N1CCCC[C@@H]1C , pKd read as 9.68

Notebook: C[C@H]1C[C@@H](F)CCN1C(=O)c1nc(C(=O)NCC(C)(C)O)sc1-c1ccc(C(O)(C(F)(F)F)C(F)(F)F)c(Cl)c1Cl , pKd read as 9.80

Notebook: CN(C(=O)c1nc(C(=O)NCC(C)(C)O)sc1-c1ccc(C(O)(C(F)(F)F)C(F)(F)F)c(Cl)c1Cl)C1CCC1 , pKd read as 9.37

----------
Can you tell me IC50 for the items I'm about to list?
Test system: IL-17 production by CD4 T cells
assay-method-text: Human Th17 Assay
Format: cell-based
test-parameters: 72 h, read-out: Human Th17 Assay, IC50
I only need the number, in nM, no unit after it.

Notebook: C[C@H]1CCCN1C(=O)c1nc(C(=O)NCC(C)(C)O)sc1-c1ccc(C(O)(C(F)(F)F)C(F)(F)F)c(Cl)c1Cl , IC50 read as 17

Notebook: O=C(NC1CS(=O)(=O)C1)c1nc(C(=O)N2CCC(F)CC2)c(-c2ccc(C(O)(C(F)(F)F)C(F)(F)F)c(Cl)c2Cl)s1 , IC50 read as 42

Notebook: C[C@H]1CCCN1C(=O)c1nc(C(=O)NCC(C)(C)O)sc1-c1ccc(C(O)(C(F)(F)F)C(F)(F)F)cc1C(F)F , IC50 read as 47

Notebook: C[C@H]1CC(F)(F)CN1C(=O)c1nc(C(=O)N2C[C@H](O)C[C@H](O)C2)sc1-c1ccc(C(O)(C(F)(F)F)C(F)(F)F)cc1C(F)(F)F , IC50 read as 13

----------
test-target: UniProt:P51449
Format: cell-based
test-parameters: HEK293T cells, Conditions A; read-out: RORγt (FL) Reporter Assay A, IC50
property-measured: IC50 (nM)
I only need the number, in nM, no unit after it.

Kindly note: UniProt:P51449, CN(C(=O)c1nc(C(=O)NCC(C)(C)O)sc1-c1ccc(C(O)(C(F)(F)F)C(F)(F)F)c(Cl)c1Cl)C1CCC1 , IC50 value reported: 10

Kindly note: UniProt:P51449, CCN(C(=O)c1nc(C(=O)NCC(C)(C)O)sc1-c1ccc(C(O)(C(F)(F)F)C(F)(F)F)c(Cl)c1Cl)C1CCC1 , IC50 value reported: 5

Kindly note: UniProt:P51449, CC(C)(O)CNC(=O)c1nc(C(=O)N2CCC(F)CC2)c(-c2ccc(C(O)(C(F)(F)F)C(F)(F)F)c(Cl)c2Cl)s1 , IC50 value reported: 25

Kindly note: UniProt:P51449, CCN(CC)C(=O)c1nc(C(=O)N2C[C@H](O)C[C@H](O)C2)sc1-c1ccc(C(O)(C(F)(F)F)C(F)(F)F)c(Cl)c1Cl , IC50 value reported: 14

Kindly note: UniProt:P51449, C[C@H]1CC(F)(F)CN1C(=O)c1nc(C(=O)NCC(C)(C)O)sc1-c1ccc(C(O)(C(F)(F)F)C(F)(F)F)c(Cl)c1Cl , IC50 value reported: 10

Kindly note: UniProt:P51449, C[C@H]1C[C@@H](F)CCN1C(=O)c1nc(C(=O)NCC(C)(C)O)sc1-c1ccc(C(O)(C(F)(F)F)C(F)(F)F)c(Cl)c1Cl , IC50 value reported: 14
